- protocol-notes: protein stability index of a GFP-peptide fusion (yeast GPS) (PSI 1-4); higher = more stable; sorted into four equal gates, so the index is relative within each strain
- condition: ubr1∆
endpoint: protein stability index
No unit in the answer, only the number.

Reference set (5 entries):
[
  {
    "biosequence": "WSFDLPEMSNLYRLSTP [PRP8]",
    "protein stability index": 2.67
  },
  {
    "biosequence": "ESLRGILHVRAQYCYKN [SRP72]",
    "protein stability index": 2.13
  },
  {
    "biosequence": "IKSGVAKLESLLENSVD [MTW1]",
    "protein stability index": 3.4
  },
  {
    "biosequence": "MSLRHFGHLMHYGNEHI [RPN1]",
    "protein stability index": 1.33
  },
  {
    "biosequence": "NNMNVNMNLNPQMFLNQ [GAL11]",
    "protein stability index": 2.48
  }
]

Item under review: TTDANGSKENYQELGSL [MED2] . Reported protein stability index?
2.9

What does the data say about its protein stability index? Entry: HVLVGDLIKFSAETLSE [FAS1]
2.79

Recorded protein stability index for AFVSVYSKNNPNLLFSM [PRP8] , please?
2.71
